target: dopamine D-2 receptor (Rattus norvegicus); test: biochemical; type: binding; settings: rat caudate, [125I]-p-aminophenylethyl spiroperidol; read-out: D-2 Ki
Below, each of the compounds is paired with its reported Ki value.
measure.name: Ki

INSERT INTO results (compound, measure_name, reported) VALUES
  ('NCC1CC2(CCCCCCCCC2)Cc2c1ccc(O)c2O (stereo not drawn)', 'Ki', '> 10 µM'),
  ('Br.NCC1=CC(C2CCCCC2)Cc2c1ccc(O)c2O (stereo not drawn) [Example 36, Hydrobromide]', 'Ki', '> 10 µM'),
  ('C#CCN(C)C[C@H]1O[C@@H](C2CCCCC2)Cc2c1ccc(O)c2O (relative stereo)', 'Ki', '> 10 µM'),
  ('Oc1ccc2c(c1O)CC(C13CC4CC(CC(C4)C1)C3)C1=C2CNCC1 (stereo not drawn)', 'Ki', '> 10 µM'),
  ('NCC1OC2(CCCCCC2)Cc2c1ccc(O)c2O (stereo not drawn)', 'Ki', '> 10 µM'),
  ('CC(C)(C)C1C=C(CN)c2ccc(O)c(O)c2C1 (stereo not drawn)', 'Ki', '6.3 µM'),
  ('CNC[C@@H]1O[C@H](C23CC4CC(CC(C4)C2)C3)Cc2c1ccc(O)c2O', 'Ki', '1 µM'),
  ('NC[C@H]1O[C@@H](CNC(=O)c2ccco2)Cc2c1ccc(O)c2O (relative stereo)', 'Ki', '> 10 µM'),
  ('NCC1CC2(CCCC2)Cc2c1ccc(O)c2O (stereo not drawn)', 'Ki', '> 10 µM'),
  ('NCC[C@H]1Cc2c(ccc(O)c2O)[C@@H](CN)O1 (relative stereo)', 'Ki', '3.7 µM'),
  ('NCC1=CC2(CCCCCCC2)Cc2c1ccc(O)c2O', 'Ki', '> 10 µM'),
  ('CCCC(=O)Oc1ccc2c(c1OC(=O)CCC)CC(c1ccccc1)C=C2CN (stereo not drawn)', 'Ki', '> 10 µM');

###

molecular target: dopamine D-2 receptor (Rattus norvegicus, UniProt P61169); assay: biochemical; type: binding; conditions: rat caudate, [125I]-p-aminophenylethyl spiroperidol; read-out: D-2 Ki
Sequence (P61169 whole entry): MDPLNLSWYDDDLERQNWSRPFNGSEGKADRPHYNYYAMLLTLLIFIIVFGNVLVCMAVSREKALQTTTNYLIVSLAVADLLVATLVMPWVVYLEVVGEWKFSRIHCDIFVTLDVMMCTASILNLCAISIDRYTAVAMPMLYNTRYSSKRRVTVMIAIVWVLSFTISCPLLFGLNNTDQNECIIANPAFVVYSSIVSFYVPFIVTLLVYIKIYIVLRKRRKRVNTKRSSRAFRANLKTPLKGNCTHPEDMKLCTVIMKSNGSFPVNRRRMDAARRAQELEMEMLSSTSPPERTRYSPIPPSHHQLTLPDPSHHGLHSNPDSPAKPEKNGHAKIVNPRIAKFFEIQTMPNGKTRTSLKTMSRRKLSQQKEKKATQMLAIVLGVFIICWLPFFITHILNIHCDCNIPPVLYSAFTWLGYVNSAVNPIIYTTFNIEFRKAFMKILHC
pKi: −log10 of the molar value. Counter-ions that a name gives are not always drawn.
measure.name: pKi

INSERT INTO measurements (compound, target_under_test, measure_name, limit_sign, reported) VALUES
  ('NCC1CC2(CCCCCC2)Cc2c1ccc(O)c2O (stereo not drawn)', 'dopamine D-2 receptor (Rattus norvegicus, UniProt P61169)', 'pKi', '=', 5.49),
  ('C=CCNC[C@H]1O[C@@H](CCCC)Cc2c1ccc(O)c2O (relative stereo)', 'dopamine D-2 receptor (Rattus norvegicus, UniProt P61169)', 'pKi', '<', 5.00),
  ('NC[C@@H]1O[C@H](C23CC4CC(CC(C4)C2)C3)Cc2c(O)c(O)cc(Br)c21 (relative stereo) [Example 107, Hydrobromide]', 'dopamine D-2 receptor (Rattus norvegicus, UniProt P61169)', 'pKi', '<', 5.00),
  ('CCCC(=O)NC[C@@H]1Cc2c(ccc(O)c2O)[C@H](CN)O1 (relative stereo)', 'dopamine D-2 receptor (Rattus norvegicus, UniProt P61169)', 'pKi', '<', 5.00),
  ('CC(C)(C)[C@H]1Cc2c(ccc(O)c2O)[C@@H](CN)O1 (relative stereo) [Example 100]', 'dopamine D-2 receptor (Rattus norvegicus, UniProt P61169)', 'pKi', '=', 4.27),
  ('Oc1ccc2c(c1O)C[C@H](C1CCCCC1)O[C@@H]2CNC1CC1 (relative stereo)', 'dopamine D-2 receptor (Rattus norvegicus, UniProt P61169)', 'pKi', '=', 6.05),
  ('CCNC[C@@H]1O[C@H](C(C)(C)C)Cc2c1ccc(O)c2O', 'dopamine D-2 receptor (Rattus norvegicus, UniProt P61169)', 'pKi', '=', 4.64),
  ('NC[C@@H]1O[C@H](CCc2ccccc2)Cc2c1ccc(O)c2O (relative stereo)', 'dopamine D-2 receptor (Rattus norvegicus, UniProt P61169)', 'pKi', '=', 5.89),
  ('CNCC1OC(CC2CCCC2)Cc2c1ccc(O)c2O (stereo not drawn)', 'dopamine D-2 receptor (Rattus norvegicus, UniProt P61169)', 'pKi', '=', 6.39),
  ('NC[C@H]1C[C@@H](c2ccccc2)Cc2c1ccc(O)c2O (relative stereo) [Example 35, Hydrobromide]', 'dopamine D-2 receptor (Rattus norvegicus, UniProt P61169)', 'pKi', '=', 6.12),
  ('CNC[C@H]1O[C@@H](CC2CCCCC2)Cc2c1ccc(O)c2O (relative stereo)', 'dopamine D-2 receptor (Rattus norvegicus, UniProt P61169)', 'pKi', '=', 5.82),
  ('NCC1c2ccc(O)c(O)c2CC(c2ccccc2)C1CCO (stereo not drawn) [Example 45, Formic Acid Salt]', 'dopamine D-2 receptor (Rattus norvegicus, UniProt P61169)', 'pKi', '<', 5.00),
  ('NC[C@@H]1O[C@H](c2cccc(O)c2)Cc2c1ccc(O)c2O (relative stereo)', 'dopamine D-2 receptor (Rattus norvegicus, UniProt P61169)', 'pKi', '=', 6.19),
  ('Cl.NCc1cc(-c2ccccc2)cc2c(O)c(O)ccc12 [Example 46, Hydrochloride]', 'dopamine D-2 receptor (Rattus norvegicus, UniProt P61169)', 'pKi', '<', 5.00),
  ('NCC1OC(CC2CCCC2)Cc2c1ccc(O)c2O (stereo not drawn)', 'dopamine D-2 receptor (Rattus norvegicus, UniProt P61169)', 'pKi', '=', 6.10),
  ('CN1CCC2=C(C1)c1ccc(O)c(O)c1CC2c1ccccc1 (stereo not drawn) [Example 246]', 'dopamine D-2 receptor (Rattus norvegicus, UniProt P61169)', 'pKi', '=', 5.49),
  ('CNCC1OC2(CCOCC2)Cc2c1ccc(O)c2O (stereo not drawn)', 'dopamine D-2 receptor (Rattus norvegicus, UniProt P61169)', 'pKi', '<', 5.00),
  ('CN1CCC2=C(C1)c1ccc(O)c(O)c1CC21CCCCCCC1', 'dopamine D-2 receptor (Rattus norvegicus, UniProt P61169)', 'pKi', '=', 5.80),
  ('CCCCCCCCCC[C@@H]1Cc2c(ccc(O)c2O)[C@H](CN)O1 (relative stereo)', 'dopamine D-2 receptor (Rattus norvegicus, UniProt P61169)', 'pKi', '=', 4.80),
  ('CN1CCC2=C(C1)c1ccc(O)c(O)c1CC21CCCC1', 'dopamine D-2 receptor (Rattus norvegicus, UniProt P61169)', 'pKi', '<', 5.00),
  ('CC[C@H]1Cc2c(ccc(O)c2O)[C@@H](CN)O1 (relative stereo)', 'dopamine D-2 receptor (Rattus norvegicus, UniProt P61169)', 'pKi', '=', 5.41),
  ('CNCC1OC(CC(C)C)Cc2c1ccc(O)c2O (stereo not drawn)', 'dopamine D-2 receptor (Rattus norvegicus, UniProt P61169)', 'pKi', '=', 5.80),
  ('CN(C)C[C@H]1O[C@@H](CC2CCCCC2)Cc2c1ccc(O)c2O (relative stereo) [Example 148A]', 'dopamine D-2 receptor (Rattus norvegicus, UniProt P61169)', 'pKi', '=', 5.59),
  ('CC(C)(C)CC1C=C(CN)c2ccc(O)c(O)c2C1 (stereo not drawn)', 'dopamine D-2 receptor (Rattus norvegicus, UniProt P61169)', 'pKi', '<', 5.00);
